- Tested on: A549 cells (human non-small cell lung cancer cells)
- ASSAY COMMENT: CCK-8 anti-proliferation assay, A549 cells
- Assay type: cell-based
- CONDITION PARAMETERS: CCK-8, 72 hours incubation

{"columns": ["COMPOUND", "UNIT ABBREVIATION", "IC50"],
 "data": [
  ["N#CCCNc1nonc1-c1nc2cc(O)ccc2n1CC(F)(F)c1ccc(N)cc1 [Compound 3]", "µM", 0.0268],
  ["N#CCCNc1nonc1-c1nc2ccccc2n1CC(F)(F)c1ccc(N)cc1 [Compound 1]", "µM", 0.029],
  ["N#CCCNc1nonc1-c1nc2ccccc2n1CC(=O)c1ccc(N)cc1 [Compound 11, reference compound]", "µM", 0.0424],
  ["Cc1ccc2c(c1)nc(-c1nonc1NCCC#N)n2CC(F)(F)c1ccc(N)cc1 [Compound 7]", "µM", 0.0139]
]}

* * *

- Test system: MCF-7 (human breast cancer cells)
- ASSAY COMMENT: CCK-8 anti-proliferation assay, MCF-7 cells
- Type: cell-based
- CONDITION PARAMETERS: MCF7, CCK-8, 72 hours incubation, read-out: MCF-7 cell IC50
pIC50: −log10 of the molar value.
# pIC50 listing for each entry below
MEASURED ENDPOINT: pIC50

{"columns": ["COMPOUND", "ENDPOINT VALUE"],
 "data": [
  ["N#CCCNc1nonc1-c1nc2ccccc2n1CC(F)c1ccc(N)cc1 (centres unmarked)", 7.64],
  ["N#CCCNc1nonc1-c1nc2c(O)cccc2n1CC(F)(F)c1ccc(N)cc1", 7.76],
  ["N#CCCNc1nonc1-c1nc2c(Cl)cccc2n1CC(F)(F)c1ccc(N)cc1", 7.66],
  ["N#CCCNc1nonc1-c1nc2cc(O)ccc2n1CC(F)(F)c1ccc(N)cc1", 7.88],
  ["N#CCCNc1nonc1-c1nc2cc(C(F)(F)F)ccc2n1CC(F)(F)c1ccc(N)cc1", 7.88],
  ["N#CCCNc1nonc1-c1nc2cc(Cl)ccc2n1CC(F)(F)c1ccc(N)cc1", 7.77],
  ["N#CCCNc1nonc1-c1nc2ccccc2n1CC(=O)c1ccc(N)cc1 [Compound 11, reference compound]", 7.41],
  ["N#CCCNc1nonc1-c1nc2ccccc2n1C(F)(F)c1ccc(N)cc1", 7.48],
  ["N#CCCNc1nonc1-c1nc2ccccc2n1CC(F)(F)c1ccc(N)cc1", 7.48],
  ["Cc1ccc2c(c1)nc(-c1nonc1NCCC#N)n2CC(F)(F)c1ccc(N)cc1", 7.59],
  ["N#CCCNc1nonc1-c1nc2ccccc2n1CCC(F)(F)c1ccc(N)cc1", 7.41]
]}

* * *

- ASSAY COMMENT: Determination of half-lethal dose (LD50) in mice
- CONDITION PARAMETERS: both sexes, mouse, in vivo, oral; Kunming mice, gastric administration, Bliss calculation method
MEASURED ENDPOINT: LD50 (mg/kg)

{"columns": ["MOLECULE", "MEASURED ENDPOINT", "UNIT ABBREVIATION", "ENDPOINT VALUE"],
 "data": [
  ["N#CCCNc1nonc1-c1nc2cc(Cl)ccc2n1CC(F)(F)c1ccc(N)cc1 [Compound 5]", "LD50", "mg/kg", 264],
  ["N#CCCNc1nonc1-c1nc2cc(C(F)(F)F)ccc2n1CC(F)(F)c1ccc(N)cc1 [Compound 6]", "LD50", "mg/kg", 254],
  ["Cc1ccc2c(c1)nc(-c1nonc1NCCC#N)n2CC(F)(F)c1ccc(N)cc1 [Compound 7]", "LD50", "mg/kg", 239],
  ["N#CCCNc1nonc1-c1nc2ccccc2n1CC(F)(F)c1ccc(N)cc1 [Compound 1]", "LD50", "mg/kg", 267],
  ["N#CCCNc1nonc1-c1nc2c(Cl)cccc2n1CC(F)(F)c1ccc(N)cc1 [Compound 4]", "LD50", "mg/kg", 262],
  ["N#CCCNc1nonc1-c1nc2ccccc2n1CCC(F)(F)c1ccc(N)cc1 [Compound 10]", "LD50", "mg/kg", 323],
  ["N#CCCNc1nonc1-c1nc2ccccc2n1C(F)(F)c1ccc(N)cc1 [Compound 9]", "LD50", "mg/kg", 305],
  ["N#CCCNc1nonc1-c1nc2cc(O)ccc2n1CC(F)(F)c1ccc(N)cc1 [Compound 3]", "LD50", "mg/kg", 239],
  ["N#CCCNc1nonc1-c1nc2c(O)cccc2n1CC(F)(F)c1ccc(N)cc1 [Compound 2]", "LD50", "mg/kg", 245],
  ["N#CCCNc1nonc1-c1nc2ccccc2n1CC(F)c1ccc(N)cc1 (stereo not shown) [Compound 8]", "LD50", "mg/kg", 291]
]}
